Test system: L1210 leukemia ip in BDF1 mice, survival T/C
assay_overview: NCI In Vivo Anticancer Drug Screen. Data for tumor model L1210 Leukemia (intraperitoneal) in B6D2F1 (BDF1) mice
test_conditions: endpoint: mean survival time; dose: 75.0 mg/kg/injection; schedule: Q01DX001 (ip); vehicle: carboxymethylcellulose (CMC); higher = longer survival
Inconclusive results and toxic doses are left out.
quantity_name: T/C

{"mol_smiles": "CCCCCCCCNCCOC(=O)c1ccc(N(CC)CC)cc1", "study_system": "L1210 leukemia ip in BDF1 mice, survival T/C", "quantity_name": "T/C", "recorded_value": "91 % of control"}
{"mol_smiles": "CN(N)C(=O)Nc1ccc(Cl)c(Cl)c1", "study_system": "L1210 leukemia ip in BDF1 mice, survival T/C", "quantity_name": "T/C", "recorded_value": "110 % of control"}
{"mol_smiles": "CCCCNC(=O)Nc1ncn[nH]1", "study_system": "L1210 leukemia ip in BDF1 mice, survival T/C", "quantity_name": "T/C", "recorded_value": "103 % of control"}
{"mol_smiles": "OCc1nc2cc3nc(CO)[nH]c3cc2[nH]1", "study_system": "L1210 leukemia ip in BDF1 mice, survival T/C", "quantity_name": "T/C", "recorded_value": "98 % of control"}
{"mol_smiles": "COc1cc(NC(=O)N(CCCl)N=O)cc(OC)c1OC", "study_system": "L1210 leukemia ip in BDF1 mice, survival T/C", "quantity_name": "T/C", "recorded_value": "236 % of control"}

Values compiled from PubChem BioAssay AID248.
